- applied.conditions: in PEG-400, 298.15 K
measured.parameter: solubility (mole fraction)
# respond with the number and nothing more

Reported solubility (mole fraction) of Cc1cnc(NC(=O)C2=C(O)c3ccccc3S(=O)(=O)N2C)s1 : 0.00932

====

- applied.conditions: in PEG-400, 313.15 K
measured.parameter: solubility (mole fraction)
# respond with the number and nothing more

Reported solubility (mole fraction) of Cc1cnc(NC(=O)C2=C(O)c3ccccc3S(=O)(=O)N2C)s1 : 0.0104

====

- applied.conditions: in water, 303.15 K
measured.parameter: solubility (mole fraction)
# respond with the number and nothing more

Reported solubility (mole fraction) of Cc1cnc(NC(=O)C2=C(O)c3ccccc3S(=O)(=O)N2C)s1 : 6.28e-07

====

- applied.conditions: in water, 313.15 K
measured.parameter: solubility (mole fraction)
# respond with the number and nothing more

Reported solubility (mole fraction) of Cc1cnc(NC(=O)C2=C(O)c3ccccc3S(=O)(=O)N2C)s1 : 1.34e-06

====

- applied.conditions: in water, 298.15 K
measured.parameter: solubility (mole fraction)
# respond with the number and nothing more

Reported solubility (mole fraction) of Cc1cnc(NC(=O)C2=C(O)c3ccccc3S(=O)(=O)N2C)s1 : 4.24e-07

====

- applied.conditions: in PEG-400, 308.15 K
measured.parameter: solubility (mole fraction)
# respond with the number and nothing more

Reported solubility (mole fraction) of Cc1cnc(NC(=O)C2=C(O)c3ccccc3S(=O)(=O)N2C)s1 : 0.0101

====

- applied.conditions: in PEG-400, 318.15 K
measured.parameter: solubility (mole fraction)
# respond with the number and nothing more

Reported solubility (mole fraction) of Cc1cnc(NC(=O)C2=C(O)c3ccccc3S(=O)(=O)N2C)s1 : 0.0106

====

- applied.conditions: in water, 318.15 K
measured.parameter: solubility (mole fraction)
# respond with the number and nothing more

Reported solubility (mole fraction) of Cc1cnc(NC(=O)C2=C(O)c3ccccc3S(=O)(=O)N2C)s1 : 1.93e-06

Entry source: BigSolDB 2.1
